# maximum MFI, fold over Isotype IgG4 background per entry
target: T1, human C-MET on stably transfected CHO-K1 cells (human, UniProt P08581 25-1390); assay: flow cytometry, C-MET CHO-K1 cells
T1 construct: also called hucMET; human C-MET+ CHO-K1 cells
T1 sequence (P08581 25-1390 limits assumed): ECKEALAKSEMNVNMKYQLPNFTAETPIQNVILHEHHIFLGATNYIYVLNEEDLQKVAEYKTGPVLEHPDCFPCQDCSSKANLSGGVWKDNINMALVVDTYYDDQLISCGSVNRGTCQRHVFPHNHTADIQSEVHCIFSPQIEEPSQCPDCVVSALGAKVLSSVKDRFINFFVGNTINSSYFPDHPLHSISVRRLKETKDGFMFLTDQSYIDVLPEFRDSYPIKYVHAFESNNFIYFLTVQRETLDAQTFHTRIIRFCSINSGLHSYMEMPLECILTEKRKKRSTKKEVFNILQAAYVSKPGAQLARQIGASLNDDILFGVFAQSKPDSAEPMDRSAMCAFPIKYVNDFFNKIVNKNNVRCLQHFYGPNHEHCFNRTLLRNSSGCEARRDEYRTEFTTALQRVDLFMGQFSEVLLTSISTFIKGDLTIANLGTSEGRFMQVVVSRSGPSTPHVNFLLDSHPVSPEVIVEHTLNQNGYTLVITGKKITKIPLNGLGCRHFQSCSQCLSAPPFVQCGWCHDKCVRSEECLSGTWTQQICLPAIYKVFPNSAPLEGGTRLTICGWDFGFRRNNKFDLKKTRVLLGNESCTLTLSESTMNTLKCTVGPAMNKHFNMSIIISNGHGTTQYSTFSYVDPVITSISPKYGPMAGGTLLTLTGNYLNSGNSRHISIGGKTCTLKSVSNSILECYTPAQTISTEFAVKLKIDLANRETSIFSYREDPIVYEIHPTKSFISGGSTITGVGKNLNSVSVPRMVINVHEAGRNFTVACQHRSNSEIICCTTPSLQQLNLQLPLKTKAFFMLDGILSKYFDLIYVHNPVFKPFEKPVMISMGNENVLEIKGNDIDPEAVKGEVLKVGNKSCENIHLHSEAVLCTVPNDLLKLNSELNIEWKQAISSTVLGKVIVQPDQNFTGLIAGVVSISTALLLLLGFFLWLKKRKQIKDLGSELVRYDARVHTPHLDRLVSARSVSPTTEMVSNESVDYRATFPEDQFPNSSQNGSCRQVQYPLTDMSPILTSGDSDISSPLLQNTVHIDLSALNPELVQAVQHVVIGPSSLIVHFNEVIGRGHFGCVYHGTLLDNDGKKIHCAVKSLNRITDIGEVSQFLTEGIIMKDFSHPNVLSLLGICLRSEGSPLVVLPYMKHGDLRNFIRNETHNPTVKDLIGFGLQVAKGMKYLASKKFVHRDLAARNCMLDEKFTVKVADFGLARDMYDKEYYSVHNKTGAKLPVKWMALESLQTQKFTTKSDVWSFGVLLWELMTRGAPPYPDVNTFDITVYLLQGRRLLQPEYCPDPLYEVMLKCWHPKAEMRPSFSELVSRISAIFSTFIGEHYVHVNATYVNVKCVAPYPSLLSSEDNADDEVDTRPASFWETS

Before answering, review these 2 worked examples.
MH3 (antibody, IgG4, V domains shown, also called MH03) VH: QVQLVQSGAEVKKPGASVKVSCKASGYTFTSYTMHWVRQAPGQGLEWMGWINPNGGSTSYAQKFQGRVTMTRDTSTSTVYMELSSLRSEDTAVYYCARQEITTEFDYWGQGTLVTVSS VL: EIVLTQSPGTLSLSPGERATLSCRASQSVSSYAQSYLHWYQQKPGQAPRLLIYRGSTRETGIPDRFSGSGSGTDFTLTISRLEPEDFAVYYCQQYGSSPLTFGGGTKVEIK	> 10 fold
08B12 (antibody, IgG4, V domains shown) VH: QVQLVQSGAEVKKPGASVKVSCKASGYIFTAYSMHWVRQAPGQGLEWMGWIKPNNGSTNYAQKFQGRVTMTRDTSTSTVYMELSSLRSEDTAVYYCARTEITTEFDYWGQGTLVTVSS VL: EIVLTQSPGTLSLSPGERATLSCRASQSVDSYANSYLHWYQQKPGQAPRLLIYRGSTRETGIPDRFSGSGSGTDFTLTISRLEPEDFAVYYCQQSKSDPLTFGGGTKVEIK	> 10 fold

Turning to the following binder.
In: Provide measured maximum MFI, fold over Isotype IgG4 background value, entry: MH7-3 (antibody, human IgG4, V domains shown) VH: QVQLVQSGAEVKKPGASVKVSCKASGYTFTSYTMHWVRQAPGQGLEWMGIINPSGGSTSYAQKFQGRVTMTRDTSTSTVYMELSSLRSEDTAVYYCARQEITTEFDYWGQGTLVTVSS VL: EIVLTQSPGTLSLSPGERATLSCRASQSVSSYAQSYLHWYQQKPGQAPRLLIYRGSTRETGIPDRFSGSGSGTDFTLTISRLEPEDFAVYYCQQSKESPLTFGGGTKVEIK
Out: > 10 fold
